Tested on: Escherichia coli
test_name: Antimicrobial activity against extended-spectrum beta lactamase producing Escherichia coli by Etest
Assay type: functional
assay_readout: MIC90 (µg/mL)
// return numeric value only (unit: µg/mL, not printed)

Query block: Returns the measured MIC90 for the input compound. Input: CC(C)(O/N=C(\C(=O)N[C@@H]1C(=O)N2C(C(=O)[O-])=C(C[n+]3ccccc3)CS[C@H]12)c1csc(N)n1)C(=O)O [CEFTAZIDIME]
Result block: 256

Query block: Lookup C[C@@H](O)[C@H]1C(=O)N2C(C(=O)O)=C(S[C@@H]3CN[C@H](C(=O)Nc4cccc(C(=O)O)c4)C3)[C@H](C)[C@H]12 [ERTAPENEM]
Result block: 0.38

Query block: Lookup C[C@@H](O)[C@H]1C(=O)N2C(C(=O)O)=C(S[C@@H]3CN[C@H](C(=O)N(C)C)C3)[C@H](C)[C@H]12 [MEROPENEM]
Result block: 0.125
